Data provenance: the supplement of paper PMC9170038

apparent KD of MS2 coat protein for assorted sequences
# Test system: MS2 coat protein
# method notes: apparent KD of MS2 coat protein; designed switch direction (-1 OFF switch, 1 ON switch): -1; higher = weaker reporter binding
# condition: Eterna round: R95; input ligand: none
Write the value in nM as a bare number.

Please review the entries below; each comes with its answer.
INSERT INTO measurements (polymer_sequence, val) VALUES
  ('UAUUAGCAAGCAAGGUCCCACAUGAGGAUCACCCAUGUGCUCGUCUUAUAAGGUACUGUGACGAAAGUCACGGUACC [Sensor 3, v1 - 92] (puzzle: Sensor v3, turn-off variant 1)', 53.1),
  ('UAGGAGUCAGGAUAUGCGAGAGAUUGAAGUAUGGGAAGUGAGCAGAAGGGACAUGAGGAUCACCCAUGUGAGAA [JR_Exclu4_Sub094] (puzzle: Exclusion 4)', 45),
  ('UGGUAACAUGAGGAUCACCCAUGUCAGGAUAUCAGUAAGAAUAGAUUAGAUUAGAAUAUGAGAAGGGACUAUAG [Excluse me! 3 - Jieux - Exclusion 1] (puzzle: Exclusion 1)', 47.8);

What apparent KD of MS2 coat protein value was documented for this sequence, UUUAAUUUUUUUUUUUUACAAGCUUUUUGCUCGUCUUAUACAUGAGGAUCACCCAUGUAAGUGGAGGGUAAAUUAUC [JMF 87] (puzzle: Sensor v3, turn-off variant 2) ? 15.2

What apparent KD of MS2 coat protein value was documented for this sequence, AGUACUAACACGAAAGUGUUAGUACAAUAAGCUUGUGAAACAUGAGGAUCACCCAUGUCCUCAUGAGCUCGUCUUAU [salish99_TOv2_r3_051] (puzzle: Sensor v3, turn-off variant 2) ? 67.9

What apparent KD of MS2 coat protein value was documented for this sequence, UUGGUUAUCCAUGGAAGUAACAUGAGGAUCACCCAUGUAUGUCUAGUUUUUUGUUCGUCAUAGGCCUUUUGUUUGGA [JR_SV3TOV1_Sub022] (puzzle: Sensor v3, turn-off variant 1) ? 30.9

What apparent KD of MS2 coat protein value was documented for this sequence, AAUUUAACAUAGGAUAUCGAAUUUAUCAUUUAACGAGAAGGAUGAACAUGAGGAUCACCCAUGUGGUAUCAUGG [Mat - Exclusion 6 - JL Mod - D2] (puzzle: Exclusion 6) ? 180

What apparent KD of MS2 coat protein value was documented for this sequence, AAAACGGCAGGAUAUCGGAACAAUGACAUGAGGAUCACCCAUGUGAUCGUUUCACUUGGCCGAGAAGGGCCAAAAU [Xeinbelele] (puzzle: Exclusion 5) ? 17.4

====

# System: K4 kissing-loop RNA reporter;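 note: bound reporter read as fluorescence of individual clusters on recovered sequencing chips by microscopy, with normalized cluster intensities fitted with a binding model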
# method notes: apparent KD of K4 kissing-loop reporter; higher = weaker reporter binding
# condition: Eterna round: R107; input ligand: FMN 200 uM
readout kind: apparent KD of K4 kissing-loop reporter
# include the unit after the value

Please review the entries below; each comes with its answer.
INSERT INTO assay_data (polymer_sequence, system_name, readout_kind, val) VALUES
  ('ACAUGUUCCAGUGAUGUUGGCGUACGUGAUACCAGACGAAUAAAAGUCCCUUGGCAGCACAAAUAAGCCAAGAUAGGUGAAUGAU [#04 K4 Theophylline A Exclusion]', 'K4 kissing-loop RNA reporter', 'apparent KD of K4 kissing-loop reporter', '0.403 µM'),
  ('AAACUUGCAGUGAUGUUGCAAGUAGGUGAUACCAGCAUCGAAAGAUGCCCUUGGCAGCACCAUCUUGUAACAUAGGUAUCACCAA [(H1)-(H2)-(T1)-(T2)-(H)''-(T)''_Design4]', 'K4 kissing-loop RNA reporter', 'apparent KD of K4 kissing-loop reporter', '0.208 µM'),
  ('AGUCUCAAAAGAGGCAGCACUCACGAGGACAAGGAUAUCAUCUCAAUGAGAAGGUGUCCUCGUCCCUAGUGAUGUUAGGGAGUGC [Omei KL FMN A SS E v6]', 'K4 kissing-loop RNA reporter', 'apparent KD of K4 kissing-loop reporter', '0.205 µM');

What apparent KD of K4 kissing-loop reporter value was documented for this sequence, UGGAUAUAGUGAUGUUAUAUAGAGAGUGAUACCAGUUUAGAGAAGAACCCUUGGCAGCAUAGAGAAGUAUCAUUAGAGAAGAAUG [ExTheophyl.Ap] ? 0.22 µM

What apparent KD of K4 kissing-loop reporter value was documented for this sequence, UCCUGUUGUCAGCCACGAAAGUGGAUUGAUACCAGAGUCGAAAGACUCCCUUGGCAGCGAGUGAUGUUCGCAGCAGGUAAAUAAA [MatMod 4 - Jieux - Exclusion - Theophylline A] ? 0.211 µM

What apparent KD of K4 kissing-loop reporter value was documented for this sequence, GUAUCGCUAGGAGGAUAUUUCAAUUUGACUCUUUGAGUUAAUACGGAGUGAUGUUCCGAUUUACGGAAAGAAGGCCUAGUGAUAC [FMN B 13] ? 0.123 µM

====

# System: MS2 coat protein
# method notes: apparent KD of MS2 coat protein; designed switch direction (-1 OFF switch, 1 ON switch): 1; higher = weaker reporter binding
# condition: input ligand: none
Label 1 when apparent KD of MS2 coat protein is at or above 100 nM; anything below gets 0.

Take a look at these entries with their results.
INSERT INTO measurements (polymer_sequence, system_name, class_name) VALUES
  ('GGCCAGAGUCAAGGAUAUGCUACCGUUUCGGUAGCAGAAGGUGAUCACAUGAGGAUCACCCAUGUUUACUGCGAGAGCAUGGCC [JL SSNG1 3.68] (Eterna round: R96, puzzle: Same State NG 1)', 'MS2 coat protein', 0),
  ('GCUCGCACGAUGACCGACAUGAGGAUCACCCAUGUGUGUCGGUAGGAUAUCUAUAUUAAGGAUUUAGAGAAGGGCCGAGCGAGC [SameState NG3 #21] (Eterna round: R96, puzzle: Same State NG 3)', 'MS2 coat protein', 1),
  ('UUGCUCGUGUGAGGAUAUGCAGCCGUUUCGGCUGCAGAAGGUACUAUAAUACAUGAGGAUCACCCAUGUCUCUGUUGUUUAGUG [salish99_SSNG1_r04_928] (Eterna round: R96, puzzle: Same State NG 1)', 'MS2 coat protein', 0),
  ('GUGGUCAGACAUGAGGAUCACCCAUGUGGAAUAAAUAAGGGAAAGGAUAUAAAAUAUAGGAUAUAUUAGAAGGUUCGGUUGGUG (Eterna round: R96, puzzle: Same State NG 3)', 'MS2 coat protein', 0),
  ('UACUGAGUCGUAGGAUAUGUAGGAUAUGGCGAGAGCUAAGCUUGGAAGUCACUUCAGCCAGAAGGACAGAAGGACGACUCUCUC [pwkr ssNG2 2FMN + F9.13] (Eterna round: R96, puzzle: Same State NG 2)', 'MS2 coat protein', 0),
  ('UGGUACAUGGGAGGAUAUCAUGUAGAAACAUGAGGAUCACCCAUGUAGGUGGCCGGUAACCGGAAUGAGAAGGCCCAUGUACCU [JL SSNG1 3.62] (Eterna round: R96, puzzle: Same State NG 2)', 'MS2 coat protein', 0),
  ('GAGUGGCAGUUAGGAUAUGUAGUGAUAAUGAUAACAGAAGGAACAGACAUGAGGAUCACCCAUGUAGGACUAAUCCAGAGAGAG [Parity 35 - Jieux - Same State NG 1] (Eterna round: R96, puzzle: Same State NG 1)', 'MS2 coat protein', 0),
  ('AUUACUAAUGCAGGAUAUGAUUAACAUGAGGAUCACCCAUGUGGUGUUGUGAGUAAGGAGAGUGAUCAGAAGGGCAUUUUUUUU [JMF''s solution 29] (Eterna round: R96, puzzle: Same State NG 2)', 'MS2 coat protein', 1);

Confirm if apparent KD of MS2 coat protein reported for the sequence AAGAGGUCCGCAGGAUAUACCCGGGCUCGCCGGGUAGAAGGGUGAACCUCAUAACCCACCACACACAUGAGGAUCACCCAUGUA [Tedile] (Eterna round: R96, puzzle: Same State NG 1) is 100 nM or above. 0

Confirm if apparent KD of MS2 coat protein reported for the sequence ACCCGCAGCCGUCAGGAUAUGUUCGCGUCAACAUGAGGAUCACCCAUGUGUGACAAGAAGUACACGCAGAAGGGAUCAAUGCGGG [Bienri] (Eterna round: R96, puzzle: Same State 2) is 100 nM or above. 0

Confirm if apparent KD of MS2 coat protein reported for the sequence GUAGCAUACCGAGGAUAUUCAUAUUAACAUGAGGAUCACCCAUGUUGGCCACAUUAGUGGCCUUGGGAGAAGGCGGAAUGCUAC [Xeonanis - 20 Mod38] (Eterna round: R96, puzzle: Same State NG 2) is 100 nM or above. 1

Confirm if apparent KD of MS2 coat protein reported for the sequence UUAAUAAUGUUAGGAUAUACAUGAGGAAUCCUCGUAGAAGGAACAUGACAUGAGGAUCACCCAUGUAGCGCUCCGAAGAGCGCA [Mat - Same State NG 1 - JL mod - D46] (Eterna round: R96, puzzle: Same State NG 1) is 100 nM or above. 1

Confirm if apparent KD of MS2 coat protein reported for the sequence ACCCGCGACGGAGGAUAUGGGCACUCGGCGGAAUAAACCGCCAUAACAUGAGGAUCACCCAUGUCCCAGAAGGCCGUCGCAAUC [Zaonesdive] (Eterna round: R96, puzzle: Same State NG 2) is 100 nM or above. 1

Confirm if apparent KD of MS2 coat protein reported for the sequence GGAAAGAGGUAAGGAUAUGCAUGGCUGGGACAUGAGGAUCACCCAUGUAAUAGAAGAAAUCUAGGGUAGAAGGUACAAGGAAGG [AK SSNG2-V2-9] (Eterna round: R96, puzzle: Same State NG 2) is 100 nM or above. 1

Confirm if apparent KD of MS2 coat protein reported for the sequence GUUACAUGAGGAUCACCCAUGUAUGUGUGGGAGUAAGUGUCUUAGGAUAUCUAGUAUUUAAUCUAAGAGAAGGAAGAUUGUUGU [JMF's solution 65] (Eterna round: R96, puzzle: Same State NG 3) is 100 nM or above. 1
